meta.source: patent US6858591B2

- Tested on: M. morganii GC 4531
- EXPERIMENT SUMMARY: In vitro MIC, broth dilution
- Type: cell-based
- MEASUREMENT CONTEXT: Morganella morganii, GC4531; M. morganii GC 4531; read-out: MIC
ENDPOINT: MIC

>>> value("COc1ccc(Cn2c(=O)ccn([C@@H]3OC([C@@H](O)[C@H](NCCCNC(=O)[C@@H](N)[C@H](C)O)C(=O)OC(C)(C)C)[C@@H](O[Si](C)(C)C(C)(C)C)[C@H]3O[Si](C)(C)C(C)(C)C)c2=O)cc1 (some centres unmarked) [Example 9]")
"> 128 µg/mL"
>>> value("CCOC(=O)C(NCCCNC(=O)[C@@H](NC(=O)[C@H](CCCNC(=N)N[N+](=O)O)NC(=O)N[C@H](C(=O)OCc1ccccc1)C(C)C)C(C)O)C(O)[C@H]1O[C@H](n2ccc(=O)[nH]c2=O)[C@H](OC(C)=O)[C@@H]1OC(C)=O (some centres unmarked) [Example 34]")
"> 128 µg/mL"

* * *

- System: S. aureus GC 2216
- EXPERIMENT SUMMARY: In vitro MIC, broth dilution
- Format: cell-based
- MEASUREMENT CONTEXT: Staphylococcus aureus, GC2216
- Procedure: The minimum inhibitory concentration (MIC), the lowest concentration of the antibiotic which inhibits growth of the test organism, is determined by the broth dilution method using Muller-Hinton II […] (Baltimore Biological Laboratories) following the recommendations of National Committee for Clinical Laboratory Standards. […] The MIC is determined after the microtiter plates are incubated for 18 hours at 35° C. in an ambient air incubator. […]
ENDPOINT: MIC

>>> value("COc1ccc(Cn2c(=O)ccn([C@@H]3OC([C@H](O)[C@H](NCCCNC(=O)[C@H](Cc4ccccc4)NC(=O)OCc4ccccc4)C(=O)OC(C)(C)C)[C@@H](O[Si](C)(C)C(C)(C)C)[C@H]3O[Si](C)(C)C(C)(C)C)c2=O)cc1 (stereo partly drawn)")
"> 128 µg/mL"
>>> value("COc1ccc(Cn2c(=O)ccn([C@@H]3OC([C@H](O)[C@H](NCCCNC(=O)[C@H](CCC(=O)OC(C)(C)C)NC(=O)OCc4ccccc4)C(=O)OC(C)(C)C)[C@@H](O[Si](C)(C)C(C)(C)C)[C@H]3O[Si](C)(C)C(C)(C)C)c2=O)cc1 (stereo partly drawn)")
"> 128 µg/mL"
>>> value("COc1ccc(Cn2c(=O)ccn([C@@H]3OC([C@H](O)[C@H](NCCCNC(=O)[C@H](CC(C)C)NC(=O)[C@H](CCCNC(=N)N)NC(=O)N[C@H](C(=O)O)C(C)C)C(=O)OC(C)(C)C)[C@@H](O[Si](C)(C)C(C)(C)C)[C@H]3O[Si](C)(C)C(C)(C)C)c2=O)cc1 (stereo partly drawn)")
"> 128 µg/mL"

* * *

- Test system: E. coli GC 2203
- EXPERIMENT SUMMARY: In vitro MIC, broth dilution
- Type: cell-based
- MEASUREMENT CONTEXT: Escherichia coli, GC2203; E. coli GC 2203; read-out: MIC
ENDPOINT: MIC (µg/mL)

>>> value("COc1ccc(Cn2c(=O)ccn([C@@H]3OC([C@H](O)[C@H](NCCCNC(=O)[C@@H](N)CCCCN)C(=O)OC(C)(C)C)[C@@H](O[Si](C)(C)C(C)(C)C)[C@H]3O[Si](C)(C)C(C)(C)C)c2=O)cc1 (some centres unmarked)")
128

* * *

- Tested on: C. albicans GC 3066
- EXPERIMENT SUMMARY: In vitro MIC, broth dilution
- Format: cell-based
- MEASUREMENT CONTEXT: Candida albicans, GC3066; C. albicans GC 3066; read-out: MIC
ENDPOINT: MIC

>>> value("CCOC(=O)C(NCCCNC(=O)[C@H](CC(C)C)NC(=O)OCc1ccccc1)C(OC(C)=O)[C@H]1O[C@@H](n2ccc(=O)[nH]c2=O)[C@H](OC(C)=O)[C@@H]1OC(C)=O (stereo partly drawn) [Example 38b]")
"> 128 µg/mL"
>>> value("CCOC(=O)C(NCCCNC(=O)[C@@H](NC(=O)OCc1ccccc1)C(C)O)C(O)[C@H]1O[C@H](n2ccc(=O)[nH]c2=O)[C@H](OC(C)=O)[C@@H]1OC(C)=O (stereo partly drawn) [Example 31a]")
"128 µg/mL"
>>> value("COc1ccc(Cn2c(=O)ccn([C@@H]3OC([C@@H](O)[C@H](NCCCNC(=O)[C@@H](N)[C@H](C)O)C(=O)OC(C)(C)C)[C@@H](O[Si](C)(C)C(C)(C)C)[C@H]3O[Si](C)(C)C(C)(C)C)c2=O)cc1 (stereo partly drawn)")
"128 µg/mL"

* * *

- System: M. morganii GC 4531
- EXPERIMENT SUMMARY: In vitro MIC, broth dilution
- Type: cell-based
- MEASUREMENT CONTEXT: Morganella morganii, GC4531; M. morganii GC 4531; read-out: MIC
ENDPOINT: MIC

>>> value("COc1ccc(Cn2c(=O)ccn([C@@H]3OC([C@H](O)[C@H](NCCCNC(=O)[C@@H](N)CC(C)C)C(=O)O)[C@@H](O)[C@H]3O)c2=O)cc1 (stereo partly drawn)")
"> 128 µg/mL"
>>> value("CCOC(=O)C(NCCCNC(=O)[C@@H](NC(=O)[C@H](CCCNC(=N)N[N+](=O)[O-])NC(=O)N[C@H](C(=O)OCc1ccccc1)C(C)C)C(C)O)C(O)[C@H]1O[C@@H](n2ccc(=O)[nH]c2=O)[C@H](OC(C)=O)[C@@H]1OC(C)=O (stereo partly drawn)")
"128 µg/mL"
>>> value("CCCCCCCCCCCCCC(=O)OC(C)[C@H](NC(=O)OCc1ccccc1)C(=O)NCCCNC(C(=O)OCC)C(O)C1O[C@@H](n2ccc(=O)[nH]c2=O)[C@H](OC(C)=O)[C@@H]1OC(C)=O (stereo in doubt)")
"> 128 µg/mL"

* * *

The following molecules are shown together with reported MIC values.
- System: S. aureus GC 4536
- EXPERIMENT SUMMARY: In vitro MIC, broth dilution
- Assay type: cell-based
- MEASUREMENT CONTEXT: Staphylococcus aureus, GC4536
ENDPOINT: MIC

>>> value("COc1ccc(Cn2c(=O)ccn([C@@H]3OC([C@H](O)[C@H](NCCCNC(=O)[C@@H](NC(=O)OCc4ccccc4)[C@@H](O)C(C)C)C(=O)OC(C)(C)C)[C@@H](O[Si](C)(C)C(C)(C)C)[C@H]3O[Si](C)(C)C(C)(C)C)c2=O)cc1 (stereo partly shown)")
"> 128 µg/mL"
>>> value("COc1ccc(Cn2c(=O)ccn([C@@H]3OC([C@H](O)[C@H](NCCCNC(=O)[C@H](CC(C)C)NC(=O)[C@H](CCCNC(=N)N)NC(=O)N[C@H](C(=O)O)C(C)C)C(=O)OC(C)(C)C)[C@@H](O[Si](C)(C)C(C)(C)C)[C@H]3O[Si](C)(C)C(C)(C)C)c2=O)cc1 (stereo partly shown)")
"> 128 µg/mL"
>>> value("COc1ccc(Cn2c(=O)ccn([C@@H]3OC([C@H](O)[C@H](NC(=O)CCCCCCCCCCNC(=O)OCC4c5ccccc5-c5ccccc54)C(=O)OC(C)(C)C)[C@@H](O[Si](C)(C)C(C)(C)C)[C@H]3O[Si](C)(C)C(C)(C)C)c2=O)cc1 (stereo partly shown)")
"> 128 µg/mL"
>>> value("COc1ccc(Cn2c(=O)ccn([C@@H]3OC([C@@H](O)[C@H](NCCCNC(=O)[C@@H](NC(=O)OCc4ccccc4)[C@H](C)O)C(=O)OC(C)(C)C)[C@@H](O[Si](C)(C)C(C)(C)C)[C@H]3O[Si](C)(C)C(C)(C)C)c2=O)cc1 (stereo partly shown)")
"128 µg/mL"

* * *

- System: E. faecalis GC 2242
- EXPERIMENT SUMMARY: In vitro MIC, broth dilution
- Type: cell-based
- MEASUREMENT CONTEXT: Enterococcus faecalis, GC2242
ENDPOINT: MIC (µg/mL)

>>> value("COc1ccc(Cn2c(=O)ccn([C@@H]3OC([C@@H](O)[C@H](NCCCNC(=O)[C@@H](NC(=O)OCc4ccccc4)[C@H](C)O)C(=O)OC(C)(C)C)[C@@H](O[Si](C)(C)C(C)(C)C)[C@H]3O[Si](C)(C)C(C)(C)C)c2=O)cc1 (stereo partly shown) [Example 8]")
64
>>> value("COc1ccc(Cn2c(=O)ccn([C@@H]3OC([C@H](O)[C@H](NCCCNC(=O)[C@H](CCCCNC(=O)OCc4ccccc4)NC(=O)OCc4ccccc4)C(=O)OC(C)(C)C)[C@@H](O[Si](C)(C)C(C)(C)C)[C@H]3O[Si](C)(C)C(C)(C)C)c2=O)cc1 (stereo partly shown) [Example 18]")
128
>>> value("COc1ccc(Cn2c(=O)ccn([C@@H]3OC([C@H](O)[C@H](NCCCNC(=O)[C@H](Cc4ccccc4)NC(=O)OCc4ccccc4)C(=O)OC(C)(C)C)[C@@H](O[Si](C)(C)C(C)(C)C)[C@H]3O[Si](C)(C)C(C)(C)C)c2=O)cc1 (stereo partly shown) [Example 12]")
128
